Study System: VEGFR-2 (human, UniProt P35968 20-1356)
Sequence (P35968 20-1356): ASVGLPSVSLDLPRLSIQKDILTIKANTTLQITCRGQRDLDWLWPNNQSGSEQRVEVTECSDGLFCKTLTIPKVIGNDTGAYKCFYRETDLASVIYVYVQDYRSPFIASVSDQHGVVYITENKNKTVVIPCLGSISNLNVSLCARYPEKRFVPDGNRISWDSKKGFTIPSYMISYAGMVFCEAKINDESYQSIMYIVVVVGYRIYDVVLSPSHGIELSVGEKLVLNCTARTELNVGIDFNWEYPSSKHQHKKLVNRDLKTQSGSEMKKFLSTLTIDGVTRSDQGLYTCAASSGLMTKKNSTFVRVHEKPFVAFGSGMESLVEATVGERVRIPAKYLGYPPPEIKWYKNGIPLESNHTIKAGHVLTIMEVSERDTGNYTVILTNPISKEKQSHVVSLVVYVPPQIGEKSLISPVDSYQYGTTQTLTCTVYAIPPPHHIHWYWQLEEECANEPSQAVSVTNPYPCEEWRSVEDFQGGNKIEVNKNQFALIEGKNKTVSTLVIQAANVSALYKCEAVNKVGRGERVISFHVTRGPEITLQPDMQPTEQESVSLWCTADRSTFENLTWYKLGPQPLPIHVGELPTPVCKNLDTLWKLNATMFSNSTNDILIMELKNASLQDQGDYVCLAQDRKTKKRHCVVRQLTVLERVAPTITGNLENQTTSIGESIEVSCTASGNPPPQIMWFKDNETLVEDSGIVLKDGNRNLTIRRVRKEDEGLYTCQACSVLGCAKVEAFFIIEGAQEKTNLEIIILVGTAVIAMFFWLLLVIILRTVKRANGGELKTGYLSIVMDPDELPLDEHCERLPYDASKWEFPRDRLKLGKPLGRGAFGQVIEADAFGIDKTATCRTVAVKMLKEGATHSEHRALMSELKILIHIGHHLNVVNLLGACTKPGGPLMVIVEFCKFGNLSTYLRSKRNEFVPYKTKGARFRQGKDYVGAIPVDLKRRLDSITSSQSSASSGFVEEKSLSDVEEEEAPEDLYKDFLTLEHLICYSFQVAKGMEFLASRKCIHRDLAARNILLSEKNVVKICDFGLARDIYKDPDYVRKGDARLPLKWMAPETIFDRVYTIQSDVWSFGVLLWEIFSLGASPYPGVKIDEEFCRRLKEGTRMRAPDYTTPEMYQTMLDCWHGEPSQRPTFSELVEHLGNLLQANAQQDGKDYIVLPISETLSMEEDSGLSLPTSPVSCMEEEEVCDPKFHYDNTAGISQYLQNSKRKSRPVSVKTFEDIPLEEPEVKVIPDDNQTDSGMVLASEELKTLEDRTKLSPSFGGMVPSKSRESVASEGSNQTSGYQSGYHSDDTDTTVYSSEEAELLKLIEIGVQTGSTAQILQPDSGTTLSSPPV
Assay Notes: cell-based or functional assay
*1 amine or outer side, *2 acyl side, *3 side chain or, on linkers, in order; H or OH if unused. Bridges are numbered along the chain shown (N, C = ends). Primed or numbered codes have the meaning given here. Where no end group is shown, it is not given here. [ ]: non-standard residue; d: D form. CO(CH2CH2O)9CH2CH2CO = O=C(CCOCCOCCOCCOCCOCCOCCOCCOCCOCCC(=O)[*:2])[*:1]; hTyr = N[C@@H](CCc1ccc(O)cc1)C(=O)O; Cha = N[C@@H](CC1CCCCC1)C(=O)O; Tle = CC(C)(C)[C@H](N)C(=O)O; 4Py2NH2 = not defined here; Ahp′ = not defined here; Yph = not defined here
Catalogue of pERK Assay Results (AlphaLISA p-Erk1/2, HUVEC) readings, one per entry.
Reported Metric: pERK Assay Results (AlphaLISA p-Erk1/2, HUVEC)

Binder	Endpoint Result
{CH2CO}-WWVDV[Ahp′]DDLYFVDCG (thioether N-14; reading uncertain; also: dimer joined at Gly15 C-termini by PEG12c-K-PEG12c) [Peptide complex Dimer Structure No. 2]	≥ 50 % activity at 100 nM
{CH2CO}-WWVDV[Cha]DDLYFVDCG (thioether N-14; also: dimer: C-terminus joined to second copy by PEG12c-K-PEG12c) [Peptide complex Dimer Structure No. 5]	≥ 50 % activity at 10 nM
{CH2CO}-WWVDVWDDLYFVDCG (thioether N-14; also: dimer joined at Gly15 C-termini by PEG12c-K-PEG12c) [Peptide complex Dimer Structure No. 3]	≥ 50 % activity at 10 nM
{CH2CO}-WW[Tle]DVKDDLY[Yph]VDCG-NH2 (thioether N-14; not fully specified (residue 6); reading uncertain; also: homodimer: Lys6 joined to Lys6 of second copy by cPEG17c (Linker Structure No. 4)) [Peptide complex Dimer Structure No. 19]	≥ 50 % activity at 100 nM
{CH2CO}-WWVDV[F4COO]DDLYFVDCG (thioether N-14; also: dimer: C-termini joined by PEG12c-K-PEG12c linker) [Peptide complex Dimer Structure No. 6]	≥ 50 % activity at 100 nM
{CH2CO}-WWVDVQDDLY[Bph]VDCG (thioether N-14; also: dimer: C-termini joined by PEG12c-K-PEG12c linker) [Peptide complex Dimer Structure No. 8]	< 50 % activity at 100 nM
{CH2CO}-[4Py2NH2]W[Tle]DVKDDLYF[hTyr]DCG-NH2 (thioether N-14; not fully specified (residue 6); reading uncertain; also: homodimer: Lys6 joined to Lys6 of second copy by cPEG17c (Linker Structure No. 4)) [Peptide complex Dimer Structure No. 22]	≥ 50 % activity at 10 nM
{CH2CO}-WWVDVKDDLY[Yph]VDCG-NH2 (thioether N-14; not fully specified (residue 6); reading uncertain; also: homodimer: Lys6 joined to Lys6 of second copy by cPEG17c (Linker Structure No. 4)) [Peptide complex Dimer Structure No. 16]	≥ 50 % activity at 100 nM
{CH2CO}-WWVDVK(CO(CH2CH2O)9CH2CH2CO)DDLYFVDCG-NH2 (thioether N-14; also: dimer: Lys6 joined to Lys6 of second copy by cPEG9c) [Peptide complex Dimer Structure No. 13]	≥ 50 % activity at 10 nM
{CH2CO}-WWVDVKDDLYF[hTyr]DCG-NH2 (thioether N-14; not fully specified (residue 6); also: homodimer: Lys6 joined to Lys6 of second copy by cPEG17c (Linker Structure No. 4)) [Peptide complex Dimer Structure No. 18]	≥ 50 % activity at 100 nM
{CH2CO}-WWVDVQDDLYFVSCG (thioether N-14; also: dimer: Gly15 C-terminus joined to second copy by PEG12c-K-PEG12c) [Peptide complex Dimer Structure No. 11]	< 50 % activity at 100 nM
{CH2CO}-[Hcit]W[Tle]DVKDDLYF[hTyr]DCG-NH2 (thioether N-14; not fully specified (residue 6); also: homodimer: Lys6 joined to Lys6 of second copy by cPEG17c (Linker Structure No. 4)) [Peptide complex Dimer Structure No. 21]	≥ 50 % activity at 10 nM
{CH2CO}-WWVDVKDDLY[F4G]VDCG-NH2 (thioether N-14; not fully specified (residue 6); also: homodimer: Lys6 joined to Lys6 of second copy by cPEG17c (Linker Structure No. 4)) [Peptide complex Dimer Structure No. 17]	≥ 50 % activity at 100 nM
{CH2CO}-WWVDVQGDLYFVDCG (thioether N-14; also: dimer: C-termini joined by PEG12c-K-PEG12c linker) [Peptide complex Dimer Structure No. 7]	≥ 50 % activity at 100 nM

Source: patent EP4748847A1
